Sourced from paper PMC12736120

method: Plasma pharmacokinetics, QD and BID cohorts (non-compartmental)
Format: in vivo, human
experimental parameters: human, plasma, oral, 150 mg, 150 mg BID, C1D21, mean, n=6, plasma; read-out: AUC0–12
recorded endpoint: AUC

Query block: So what does the record say about AUC for "Nc1ncc(-c2cnn(C3CCNCC3)c2)cc1-c1nnc(CC2CC2)o1" ?
Result block: 4620 ng·h/mL

---

method: Plasma pharmacokinetics, QD and BID cohorts (non-compartmental)
Type: in vivo, human
experimental parameters: human, plasma, oral, 150 mg, 150 mg BID, C1D1, median, n=6, plasma; read-out: Cmax
recorded endpoint: Cmax (ng/mL)
Entry rule: numbers only, all in ng/mL.

Query block: So what does the record say about Cmax for Nc1ncc(-c2cnn(C3CCNCC3)c2)cc1-c1nnc(CC2CC2)o1 [SLC-391] ?
Result block: 208
